Cited source: ChEMBL document CHEMBL1201862

Quick list: GI50 per entry.
test system: MDA-MB-231; assay: NCI tumour cell line growth inhibition, 48 h
Activity calls are given as the source filed them. Rule as the data show it: active = GI50 up to about 1.1 µM and inactive = higher.

Recorded results for 3 compounds are shown here.
>  <compound>
Clc1ccc(CCN(CCc2ccc(Cl)c(Cl)c2)CCN2CCCC2)cc1Cl

>  <result>
1.56 µM (inactive)

$$$$
>  <compound>
NC(Cc1ccc2nc3c4ccccc4c(=O)cc-3oc2c1)C(=O)O (stereo unspecified)

>  <result>
> 100 µM (inactive)

$$$$
>  <compound>
CC(=O)c1c(C)[n+]([O-])c2cc(Cl)c(Cl)cc2[n+]1[O-]

>  <result>
22.1 µM (inactive)

$$$$

**Q:** Quick one: GI50 for CC(C)C(C/C=C1/CC(CO)(COC(=O)CC(C(C)C)C(C)C)OC1=O)C(C)C (stereo unspecified) ?
**A:** 4.21 µM (inactive)

**Q:** Quick one: GI50 for CC1(c2cccc(C(F)(F)F)c2)CC(c2cccc(C(F)(F)F)c2)=C(C#N)C(=C(C#N)C#N)N1 (stereo unspecified) ?
**A:** 23 µM (inactive)

**Q:** Quick one: GI50 for CN(CCc1ccccn1)c1ccc2c(c1)Cc1ccccc1-2 ?
**A:** 3.09 µM (inactive)

**Q:** Quick one: GI50 for Cc1[nH]c2ncn3ncnc3c2c1Cc1ccccc1 ?
**A:** > 100 µM (inactive)

**Q:** Quick one: GI50 for CCOC(=O)c1cccc(NC(=O)CBr)c1 ?
**A:** 1.82 µM (inactive)

**Q:** Quick one: GI50 for COc1ccc(-c2oc3cc(OC)c(OC)c(OC)c3c(=O)c2OC)cc1OC [HEXAMETHOXYFLAVONE] ?
**A:** > 100 µM (inactive)

**Q:** Quick one: GI50 for COc1ccccc1-n1cnc2c1=NC(C)(C)NC=2C(N)=O ?
**A:** > 100 µM (inactive)

**Q:** Quick one: GI50 for CC(=O)Oc1ccc2c(c1OC(C)=O)CCC1C2=CC[C@]2(C)C(=O)CCC12 (stereo partly specified) ?
**A:** 14.3 µM (inactive)

====

tested on: DU-145; test: NCI tumour cell line growth inhibition, 48 h
Active and inactive are the calls of the source. No stated cut-off is given here; in the data, active = GI50 up to about 1.1 µM and inactive = higher.
Write down one outcome, taken from YES (active), NO (inactive)

>  <compound>
S=C(Nc1cccc(C2(N3CCCCC3)CCCCC2)c1)Nc1cccc(C2(N3CCCCC3)CCCCC2)c1

>  <cat>
NO

$$$$
>  <compound>
CCCCCCCCCCCCCCCCOP(=O)(O)OCC(N)C(=O)O (centres undefined)

>  <cat>
NO

$$$$
>  <compound>
COCn1c2ccc(OC(C)=O)cc2c2c(=O)oc(C)nc21

>  <cat>
NO

$$$$
>  <compound>
CCc1nc(N)nc(N)c1-c1ccc(N2CCNCC2)cc1

>  <cat>
NO

$$$$
>  <compound>
C=CCOC(=O)CC[N+]1=CCC(c2ccccc2)(c2ccccc2)O1

>  <cat>
NO

$$$$
>  <compound>
NC(CCOCCP(=O)(O)CCOCCC(N)C(=O)O)C(=O)O (centres undefined)

>  <cat>
NO

$$$$
>  <compound>
Cc1cccc2c(N)c3cccc(C(=O)NCC[N+](C)(C)[O-])c3nc12

>  <cat>
NO

$$$$
>  <compound>
N=C(N)N/N=C/c1c(-c2ccc(Cl)cc2)nc2sccn12

>  <cat>
NO

$$$$

**Q:** # lookup: test call for COc1ccc2cc3[n+](cc2c1OC)CCc1cc2c(cc1-3)OCO2 [BERBERINE CHLORIDE]
**A:** NO

**Q:** # lookup: test call for CC1=NN(c2cccc(Cl)c2)C2(C1=Cc1ccccc1)C(Cl)C(=O)N2c1nc2ccccc2s1 (centres undefined)
**A:** NO

**Q:** # lookup: test call for CC(=O)Oc1ccc2c(c1OC(C)=O)CCC1C2=CC[C@]2(C)C(=O)CCC12 (some centres undefined)
**A:** NO

**Q:** # lookup: test call for CN(C)C(=O)C(F)(F)C(c1ccccc1Br)C1C(=O)N(C)C(=O)N(C)C1=O (centres undefined)
**A:** NO

**Q:** # lookup: test call for COc1cc(C2C3=C(COC3=O)Oc3cc4c(cc32)OCO4)cc(OC)c1O (centres undefined)
**A:** YES

**Q:** # lookup: test call for O=[N+]([O-])/C(C(Cl)=C(Cl)Cl)=C(/Nc1ccccc1)SCc1ccccc1
**A:** NO

**Q:** # lookup: test call for CN(C)CCCNC(=O)c1cc(NC(=O)c2cc(NC(=O)[C@@H]3C[C@H]3C(=O)Nc3cc(C(=O)Nc4cc(C(=O)NCCCN(C)C)n(C)c4)n(C)c3)cn2C)cn1C
**A:** NO

**Q:** # lookup: test call for CC1=NN(C(=O)CC(=O)NC(=O)/C=C\c2ccccc2)C(=O)C1/N=N/c1ccc([N+](=O)[O-])cc1 (centres undefined)
**A:** NO

**Q:** # lookup: test call for COC(=O)c1cc2cc3c(c(O)c2c(=O)o1)O[C@@]1(Oc2c(O)c4c(c(O)c2[C@H]1OC1CC(OC)C(O)C(C)O1)C(=O)C=C(OC)C4=O)[C@H](O)C3 (some centres undefined)
**A:** YES

**Q:** # lookup: test call for CC(=O)OC12c3ccccc3C(c3ccccc31)C1C(=O)N(c3ccccn3)C(=O)C12 (centres undefined)
**A:** NO

====

tested on: DLD-1; assay: NCI tumour cell line growth inhibition, 48 h
Calls of active or inactive are those of the source. No stated cut-off is given here; in the data, active = GI50 up to about 1.1 µM and inactive = higher.
Quick list: GI50 per entry.

Recorded results for 5 molecules are shown here.
>  <molecule>
O=S(O)CCCCSSCCCCS(=O)(=O)S

>  <GI50>
> 100 µM (inactive)

$$$$
>  <molecule>
CCOc1ccccc1NC(=O)CCc1n[nH]c(=S)o1

>  <GI50>
> 100 µM (inactive)

$$$$
>  <molecule>
COc1ccc(C(=O)C(c2ccc(OC)cc2)C2OC(=O)C(Cl)=C2Cl)cc1 (stereo unspecified)

>  <GI50>
> 100 µM (inactive)

$$$$
>  <molecule>
CSC1CC2C(CC1(C)O)C2(C)C (stereo unspecified)

>  <GI50>
> 100 µM (inactive)

$$$$
>  <molecule>
OCC(O)C(OC1OC(CO)C(O)C(O)C1O)c1nn(-c2ccc(Cl)cc2)c2nc3cc(Cl)c(Cl)cc3nc12 (stereo unspecified)

>  <GI50>
> 100 µM (inactive)

$$$$

**Q:** Quick one: GI50 for N#CC(C(=O)CCC(=O)Nc1ccc(Cl)cc1)c1ccc(Cl)cc1 (stereo unspecified) ?
**A:** 71.3 µM (inactive)

**Q:** Quick one: GI50 for Cc1cc2c(=O)cc(-c3ccc(C(F)(F)F)cc3)oc2c(C(=O)O)c1C ?
**A:** > 100 µM (inactive)

**Q:** Quick one: GI50 for CC(c1ccccc1)N1CC(C)(c2ccccc2)N(O)C(c2ccccc2)C1C (stereo unspecified) ?
**A:** 23.7 µM (inactive)

**Q:** Quick one: GI50 for Nc1ccc(Sc2c3ccccc3nc3ccccc23)cc1 ?
**A:** 6 µM (inactive)

**Q:** Quick one: GI50 for OCC1C2C=CC(O2)[C@H]1CO (stereo partly specified) ?
**A:** > 100 µM (inactive)

**Q:** Quick one: GI50 for Cc1ccccc1C(C#N)/C(=N/NC(N)=S)C(=O)Nc1c(C)cccc1C (stereo unspecified) ?
**A:** > 100 µM (inactive)

====

test system: RXF 631; test: NCI tumour cell line growth inhibition, 48 h
Activity calls are given as the source filed them. Cut-off read from the data, not from the text of the source: active = GI50 up to about 1.1 µM and inactive = higher.
Write down one outcome, taken from True (active), False (inactive)

Observe how each entry below is paired with its result.
>  <molecule>
O=C(O)/C(Cl)=C(/Cl)C(=O)Nc1cccc(Cl)c1

>  <cat>
False

$$$$
>  <molecule>
Nc1ccn(C2OC(C(O)CO)C(O)C2O)c(=O)n1 (stereo not drawn)

>  <cat>
False

$$$$
>  <molecule>
CCOCc1cc(=O)c2c(O)cc3c(c2o1)CCC(C)(C)O3

>  <cat>
False

$$$$
>  <molecule>
CN(C(=O)C12C3C4C1C1C2C3C41C(=O)C(C)(C)C)C(C)(C)C (stereo not drawn)

>  <cat>
False

$$$$
>  <molecule>
CC(=O)NNc1nc(C)c(C(/C=C/c2ccc(Cl)cc2)=N\N=C(N)N)s1

>  <cat>
False

$$$$

**Q:** # lookup: test call for CN(C)C(=S)OC(Cn1cncn1)c1ccc(Cl)cc1Cl (stereo not drawn)
**A:** False

**Q:** # lookup: test call for O/N=C/c1cc2c(cc1Br)OCO2
**A:** False

**Q:** # lookup: test call for CC1CC(C)CC(C)C(O)/C(C#N)=C/C=C/CC(C2CCCC2C(=O)O)OC(=O)CC(O)C(C)C1 (stereo not drawn)
**A:** True

**Q:** # lookup: test call for C=CC/C=C/C/C=C/CCCCCCCc1cccc(O)c1C(=O)O
**A:** False

**Q:** # lookup: test call for CC(C)(C)c1nc2c(o1)C(=O)c1ccccc1C2=O
**A:** False

**Q:** # lookup: test call for Cc1cccc(-c2nnc(S)[nH]2)c1
**A:** False

**Q:** # lookup: test call for O=C(COc1ccccc1)NS(=O)(=O)c1ccccc1
**A:** False

**Q:** # lookup: test call for COC(=O)C(C(=O)C(=O)Nc1cccc(O)c1)c1nc2ccc(Cl)cc2nc1O (stereo not drawn)
**A:** False
